molecular target: dAsCas12a Ultra (Acidaminococcus sp., UniProt U2UMQ6 1-1307, M537R;F870L;D908A;E993A;D1235A); assay: Spec-seq (native PAGE EMSA with sequencing of bound and unbound); 25 mM Tris-HCl pH 7.4, 150 mM KCl, 5 mM MgCl2, 10% glycerol, 1 mM DTT, 40 ng/uL salmon sperm DNA; 400 nM Cas12a, 480 nM crRNA, 50 nM library, 37 C 1 h; native PAGE at room temperature; high values mean tight binding; conditions: protein: recombinant
Hi, to clarify the labels: t covers binding signal from -8 lnKA upward, f covers anything below -8 lnKA.

>  <Binder>
CTAA (dsDNA) DNA 1: GCTATCTAGTGCTCAGTACGCACTGCTAAAGGAAACTTCTGGCAGGACCAGGTCATGAGATCGGAAGAGCACACGTCTGAACTCCAGTCA DNA 2: TGACTGGAGTTCAGACGTGTGCTCTTCCGATCTCATGACCTGGTCCTGCCAGAAGTTTCCTTTAGCAGTGCGTACTGAGCACTAGATAGC RNA: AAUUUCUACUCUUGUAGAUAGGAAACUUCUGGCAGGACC

>  <Category Label>
f

$$$$
>  <Binder>
CGGG (dsDNA) DNA 1: GCTATCTAGTGCTCAGTACGCACTGCGGGAGGAAACTTCTGGCAGGACCAGGTCATGAGATCGGAAGAGCACACGTCTGAACTCCAGTCA DNA 2: TGACTGGAGTTCAGACGTGTGCTCTTCCGATCTCATGACCTGGTCCTGCCAGAAGTTTCCTCCCGCAGTGCGTACTGAGCACTAGATAGC RNA: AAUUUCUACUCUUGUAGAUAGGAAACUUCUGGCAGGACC

>  <Category Label>
f

$$$$
>  <Binder>
CCTC (dsDNA) DNA 1: GCTATCTAGTGCTCAGTACGCACTGCCTCAGGAAACTTCTGGCAGGACCAGGTCATGAGATCGGAAGAGCACACGTCTGAACTCCAGTCA DNA 2: TGACTGGAGTTCAGACGTGTGCTCTTCCGATCTCATGACCTGGTCCTGCCAGAAGTTTCCTGAGGCAGTGCGTACTGAGCACTAGATAGC RNA: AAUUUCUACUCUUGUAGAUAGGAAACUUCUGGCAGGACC

>  <Category Label>
t

$$$$
>  <Binder>
ACTG (dsDNA) DNA 1: GCTATCTAGTGCTCAGTACGCACTGACTGAGGAAACTTCTGGCAGGACCAGGTCATGAGATCGGAAGAGCACACGTCTGAACTCCAGTCA DNA 2: TGACTGGAGTTCAGACGTGTGCTCTTCCGATCTCATGACCTGGTCCTGCCAGAAGTTTCCTCAGTCAGTGCGTACTGAGCACTAGATAGC RNA: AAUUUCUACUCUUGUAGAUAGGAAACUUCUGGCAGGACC

>  <Category Label>
t

$$$$
>  <Binder>
ATGA (dsDNA) DNA 1: GCTATCTAGTGCTCAGTACGCACTGATGAAGGAAACTTCTGGCAGGACCAGGTCATGAGATCGGAAGAGCACACGTCTGAACTCCAGTCA DNA 2: TGACTGGAGTTCAGACGTGTGCTCTTCCGATCTCATGACCTGGTCCTGCCAGAAGTTTCCTTCATCAGTGCGTACTGAGCACTAGATAGC RNA: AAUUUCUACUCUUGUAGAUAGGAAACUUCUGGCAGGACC

>  <Category Label>
f

$$$$
>  <Binder>
CGTA (dsDNA) DNA 1: GCTATCTAGTGCTCAGTACGCACTGCGTAAGGAAACTTCTGGCAGGACCAGGTCATGAGATCGGAAGAGCACACGTCTGAACTCCAGTCA DNA 2: TGACTGGAGTTCAGACGTGTGCTCTTCCGATCTCATGACCTGGTCCTGCCAGAAGTTTCCTTACGCAGTGCGTACTGAGCACTAGATAGC RNA: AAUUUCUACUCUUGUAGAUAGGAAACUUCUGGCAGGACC

>  <Category Label>
f

$$$$
>  <Binder>
TTGC (dsDNA) DNA 1: GCTATCTAGTGCTCAGTACGCACTGTTGCAGGAAACTTCTGGCAGGACCAGGTCATGAGATCGGAAGAGCACACGTCTGAACTCCAGTCA DNA 2: TGACTGGAGTTCAGACGTGTGCTCTTCCGATCTCATGACCTGGTCCTGCCAGAAGTTTCCTGCAACAGTGCGTACTGAGCACTAGATAGC RNA: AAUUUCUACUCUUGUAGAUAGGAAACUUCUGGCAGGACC

>  <Category Label>
t

$$$$
>  <Binder>
CGTC (dsDNA) DNA 1: GCTATCTAGTGCTCAGTACGCACTGCGTCAGGAAACTTCTGGCAGGACCAGGTCATGAGATCGGAAGAGCACACGTCTGAACTCCAGTCA DNA 2: TGACTGGAGTTCAGACGTGTGCTCTTCCGATCTCATGACCTGGTCCTGCCAGAAGTTTCCTGACGCAGTGCGTACTGAGCACTAGATAGC RNA: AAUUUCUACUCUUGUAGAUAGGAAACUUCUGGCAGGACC

>  <Category Label>
f

$$$$
